Cited source: paper PMC12561670

# Test system: S. aureus (ATCC 6538)
# testSummary: MIC, broth microdilution
# Assay type: cell-based
# conditionSet: Staphylococcus aureus, ATCC6538; broth microdilution, 18 h, 37 °C; read-out: MIC S. aureus (ATCC 6538)
Structures can show the parent of a compound that is named as a salt.
propertyMeasured: MIC (µM)
Enter your answer as a number in µM; do not include the unit.

Before answering, review these 2 worked examples.
Sample CN(C)c1ccc2c(c1)Sc1cc(N(C)C)ccc1N2 [Compound 33, Leucomethylene blue mesylate] — what was its MIC?
4

Moving on to the next compound: CN(C)c1ccc2nc3ccc(=[N+](C)C)cc-3sc2c1
2

Read the next record carefully.
Any idea what its MIC is? The compound is CC(C)(C)c1[nH]cnc1/C=c1\[nH]c(=O)/c(=C/c2ccccc2)[nH]c1=O
8
